Residual rate overview
Assay: Evaluation of conversion rate to active form in buffer solution (Experimental Example 1)
Assay type: physicochemical
Conditions: pH6.5, 0 hr, 37° C., 25 umol/L in buffer solution
Protocol: For Examples 1 to 16 and Comparative Examples 1 to 14, the attrition rate of the test compound and the conversion rate of the test compound to Alvocidib in a buffer solution were calculated by the following method. Examples 1 to 16 and Comparative Examples 1 to 14 were each left in buffer solutions adjusted to pH 5.0, 5.5, 6.0, 6.5, 7.0 and 7.4, respectively, at a concentration of 25 umol/L at 37° C. […]
Structures can show the parent of a compound that is named as a salt.
metric: Residual rate (%)

>  <compound>
CN1CC[C@H](c2c(OC(=O)N(Cc3ccccc3)CC3CCCCN3)cc(O)c3c(=O)cc(-c4ccccc4Cl)oc23)[C@H](O)C1 (stereo partly shown)

>  <observed>
94.8

$$$$
>  <compound>
CCNC(=O)Oc1cc(O)c2c(=O)cc(-c3ccccc3Cl)oc2c1[C@H]1CCN(C)C[C@H]1O [Comparative Example 1, reference compound]

>  <observed>
87.1

$$$$
>  <compound>
CCN(C[C@@H]1CCCCN1)C(=O)Oc1cc(O)c2c(=O)cc(-c3ccccc3Cl)oc2c1[C@H]1CCN(C)C[C@H]1O [Example 1, ditrifluoroacetate]

>  <observed>
98.4

$$$$
>  <compound>
COCCN(CC1CCCCN1)C(=O)Oc1cc(O)c2c(=O)cc(-c3ccccc3Cl)oc2c1[C@H]1CCN(C)C[C@H]1O (stereo partly shown)

>  <observed>
80.4

$$$$
>  <compound>
CCCN(CC1CCCCN1)C(=O)Oc1cc(O)c2c(=O)cc(-c3ccccc3Cl)oc2c1[C@H]1CCN(C)C[C@H]1O (stereo partly shown)

>  <observed>
95.9

$$$$
>  <compound>
CN1CC[C@H](c2c(OC(=O)N(C)C[C@H]3CCCCN3)cc(O)c3c(=O)cc(-c4ccccc4Cl)oc23)[C@H](O)C1

>  <observed>
99.3

$$$$
>  <compound>
CCN(C[C@H]1CCCCN1)C(=O)Oc1cc(O)c2c(=O)cc(-c3ccccc3Cl)oc2c1[C@H]1CCN(C)C[C@H]1O

>  <observed>
95.9

$$$$
>  <compound>
CN1CC[C@H](c2c(OC(=O)N(C)C[C@@H]3CCCCN3)cc(O)c3c(=O)cc(-c4ccccc4Cl)oc23)[C@H](O)C1

>  <observed>
99.7

$$$$
>  <compound>
CN1CC[C@H](c2c(OC(=O)N(C)CC3CCCCN3)cc(O)c3c(=O)cc(-c4ccccc4Cl)oc23)[C@H](O)C1 (stereo partly shown)

>  <observed>
95.0

$$$$
>  <compound>
CN1CC[C@H](c2c(OC(=O)N(CCC(F)(F)F)CC3CCCCN3)cc(O)c3c(=O)cc(-c4ccccc4Cl)oc23)[C@H](O)C1 (stereo partly shown)

>  <observed>
81.4

$$$$
>  <compound>
CCN(CC1CCCCN1)C(=O)Oc1cc(O)c2c(=O)cc(-c3ccccc3Cl)oc2c1[C@H]1CCN(C)C[C@H]1O (stereo partly shown) [Example 7, dihydrochloride]

>  <observed>
96.7

$$$$
>  <compound>
CN1CC[C@H](c2c(OC(=O)N(CCF)CC3CCCCN3)cc(O)c3c(=O)cc(-c4ccccc4Cl)oc23)[C@H](O)C1 (stereo partly shown)

>  <observed>
81.4

$$$$
>  <compound>
CC(C)N(CC1CCCCN1)C(=O)Oc1cc(O)c2c(=O)cc(-c3ccccc3Cl)oc2c1[C@H]1CCN(C)C[C@H]1O (stereo partly shown)

>  <observed>
91.3

$$$$
